Tested on: Fer (mouse)
TEST_SUMMARY: phosphorylation enrichment, bacterial display (enrichment ratio); higher = better substrate or ligand; peptides without Tyr show the background;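 note: 11-residue human phosphosite peptides and single-mutation variants displayed on the E. coli surface, counted by deep sequencing, each peptide's frequency after selection divided by its frequency in the unselected input library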;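 note: frequency after pTyr selection over input frequency; kinase dosed for 20-30% of maximal phosphorylation in three min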
Listing of recorded phosphorylation enrichment by entry.
Give the value as a plain number.

Field: example entries. Status: answers known.
DPHECYAKVFD [ALB_Y394]
0.584
GLDGSYLLRDS [SH2D1A_Y29]
0.39

Note: attention shifts to another entry.
Quick check: phosphorylation enrichment of ENELTYYCYKK [CD59_Y86_C89Y] ? 0.685

---

TARGET_OR_SYSTEM: Hck (UniProt P08631)
Sequence (P08631 whole entry, looked up): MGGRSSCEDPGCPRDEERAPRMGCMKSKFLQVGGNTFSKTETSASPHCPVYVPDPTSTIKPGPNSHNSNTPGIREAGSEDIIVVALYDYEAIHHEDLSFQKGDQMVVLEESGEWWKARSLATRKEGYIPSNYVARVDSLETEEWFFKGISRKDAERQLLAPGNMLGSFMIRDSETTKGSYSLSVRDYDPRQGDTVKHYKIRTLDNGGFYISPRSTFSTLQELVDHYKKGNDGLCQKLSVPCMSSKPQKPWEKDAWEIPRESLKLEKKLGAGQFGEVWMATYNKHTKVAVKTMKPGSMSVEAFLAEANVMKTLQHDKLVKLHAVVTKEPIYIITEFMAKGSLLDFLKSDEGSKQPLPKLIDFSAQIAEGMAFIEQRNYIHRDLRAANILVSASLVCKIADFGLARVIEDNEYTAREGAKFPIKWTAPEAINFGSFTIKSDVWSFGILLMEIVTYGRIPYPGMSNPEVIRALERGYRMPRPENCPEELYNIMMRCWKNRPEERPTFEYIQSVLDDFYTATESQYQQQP
TEST_SUMMARY: phosphorylation enrichment, bacterial display (enrichment ratio); higher = better substrate or ligand; peptides without Tyr show the background
Is phosphorylation enrichment at least 0.7? Then T. If not, F.

Past entries and their recorded results:
AFAEVYEGQVS [ALK_Y1131_G1128A]
T
VVGMLYVGGLP [LAMA2_Y2886]
F
FGYPGYQCKHY [TIMP3_Y177_S179C]
F

Now consider a different sequence.
Entry TFEFRYLEDRD [CNOT3_Y746_YF] : is its phosphorylation enrichment no less than 0.7? F

---

Listing of recorded phosphorylation enrichment by entry.
TARGET_OR_SYSTEM: Jak2 (UniProt O60674)
Sequence (O60674 whole entry, looked up): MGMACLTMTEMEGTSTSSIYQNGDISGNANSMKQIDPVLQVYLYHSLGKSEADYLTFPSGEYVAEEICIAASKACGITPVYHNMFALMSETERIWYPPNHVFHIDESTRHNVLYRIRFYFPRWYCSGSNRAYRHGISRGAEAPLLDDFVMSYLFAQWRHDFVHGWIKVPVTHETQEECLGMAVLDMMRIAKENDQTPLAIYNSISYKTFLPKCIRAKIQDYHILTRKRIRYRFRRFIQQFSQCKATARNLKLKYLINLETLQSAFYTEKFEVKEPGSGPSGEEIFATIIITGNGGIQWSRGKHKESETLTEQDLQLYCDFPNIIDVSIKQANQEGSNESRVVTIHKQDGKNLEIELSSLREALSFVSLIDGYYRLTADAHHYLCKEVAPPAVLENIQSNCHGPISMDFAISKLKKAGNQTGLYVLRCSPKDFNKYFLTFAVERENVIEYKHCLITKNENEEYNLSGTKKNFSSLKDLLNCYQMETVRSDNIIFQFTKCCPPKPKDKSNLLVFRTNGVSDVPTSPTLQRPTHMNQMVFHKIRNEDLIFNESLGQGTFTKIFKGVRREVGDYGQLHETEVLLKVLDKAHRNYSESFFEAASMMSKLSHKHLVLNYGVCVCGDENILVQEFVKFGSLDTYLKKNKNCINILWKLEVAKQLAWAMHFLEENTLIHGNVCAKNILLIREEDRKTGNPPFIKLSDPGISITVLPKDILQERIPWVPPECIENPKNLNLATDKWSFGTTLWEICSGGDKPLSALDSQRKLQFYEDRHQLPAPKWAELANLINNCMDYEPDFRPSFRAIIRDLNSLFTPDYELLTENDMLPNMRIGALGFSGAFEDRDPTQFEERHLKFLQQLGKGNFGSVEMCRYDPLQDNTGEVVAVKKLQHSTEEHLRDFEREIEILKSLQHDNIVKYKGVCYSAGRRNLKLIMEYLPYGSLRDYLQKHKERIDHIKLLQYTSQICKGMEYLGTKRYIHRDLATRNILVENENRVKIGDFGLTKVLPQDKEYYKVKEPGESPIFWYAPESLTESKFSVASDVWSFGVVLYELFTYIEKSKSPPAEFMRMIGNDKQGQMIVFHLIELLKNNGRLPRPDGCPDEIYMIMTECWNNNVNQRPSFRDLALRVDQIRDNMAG
TEST_SUMMARY: phosphorylation enrichment, bacterial display (enrichment ratio); higher = better substrate or ligand; peptides without Tyr show the background
Give the value as a plain number.

Field: example entries. Status: answers known.
CDYKKYGKGLR [ZNF445_Y433_Y428C]
0.563
KPLMPCMRYSR [SMARCE1_Y73_Y73C]
0.756
NCFKFYMSDDI [ATRX_Y204_YF]
1.17
NKEPRYQEEPP [TJP2_Y479_D482E]
0.915
SVGGCYEQLFV [MC4R_Y41_D37V]
1.14

Quick check: phosphorylation enrichment of SMEMKYLEEKN [ZAP70_Y451_G448E] ? 1.22

Check SLEKSYELLDG [ACTB_Y240_P243L] too. 1.25

Check PGVDIYISPNM [PADI3_Y51] too. 1.75

Check CNTIHYNFMCN [TP53_Y234_T230N_YF] too. 0.636

Check FFHCTYKQRMI [CLEC12A_Y242_K244Q_YF] too. 1.02

Check SQQTYYPVSNM [ABCD1_Y181_R182P] too. 9.57

Check RTCSSYAIEKI [PARP15_Y520] too. 0.894

Check WNDLDYVDSRR [GAA_Y407_M408V] too. 0.89

Check LLAGLYRGQAL [FGFR4_Y390] too. 0.72

Check DHPSEYAARQL [ANXA13_Y90_R86H] too. 0.576

Check KNNDGYTDYAE [MCFD2_Y135_I136T] too. 0.831

Check RIVEIYSRRLQ [GCH1_Y175] too. 0.794

Check ILTFKYLQKPM [KIT_Y547_YF] too. 1.42

Check CTTIHFNYMCN [TP53_Y234_Y234F] too. 0.628

Check SLLLSYFLIKW [NUP160_Y773_P768S_YF] too. 1.51

Check ALWYIYSHTRS [ENG_Y614] too. 1.14

Check PELINYHQHYS [BTK_Y361_N365Y] too. 0.577

Check QGIIIYRAAYF [SLC25A4_Y187] too. 1.13

Check YRIDHYLGKEM [G6PD_Y202] too. 0.865

Check VTRANYFIRDE [GNAS_Y339_K338N] too. 0.845

Check IKIMGYFIRTI [IDS_Y490_S491F] too. 0.93

Check TNRSFYFKPSL [NUP153_Y382_V381F] too. 3.54

Check HNLDYYKKTTN [FGFR3_Y648] too. 0.632

Check VAFLYYKSIGP [ADGRL4_Y302_V300L] too. 1.44
